Reported At −80°C for a month Remain values are given for each entry in this list.
# assayDetails: Stability of the analytes in rat plasma QC samples under storage conditions
# Assay type: in vitro ADME
# conditionSet: 30 ng/mL

molecule | At −80°C for a month Remain (%)
COC(=O)C1=CO[C@@H](O[C@@H]2O[C@H](CO)[C@@H](O)[C@H](O)[C@H]2O)[C@@H]2C(CO)=CC[C@H]12 [Geniposide] | 98.4
CC(/C=C/C=C(\C)C(=O)O)=C\C=C\C=C(C)\C=C\C=C(/C)C(=O)O | 101
O=C(O)C1=CO[C@@H](O[C@@H]2O[C@H](CO)[C@@H](O)[C@H](O)[C@H]2O)[C@@H]2C(CO)=CC[C@H]12 | 98.0
COC(=O)C1=CO[C@@H](O)[C@@H]2C(CO)=CC[C@H]12 | 103
COC(=O)C1=CO[C@@H](O[C@@H]2O[C@H](CO[C@@H]3O[C@H](CO)[C@@H](O)[C@H](O)[C@H]3O)[C@@H](O)[C@H](O)[C@H]2O)[C@@H]2C(CO)=CC[C@H]12 [Genipin-1-β-gentiobioside] | 96.3
